Attribute: remaining activity at 0.1 µM
molecular target: wild-type BTK (Homo sapiens); test: BTK in vitro activity assay (ADP-Glo, poly-Glu:Tyr phosphorylation, TCEP); conditions: read-out: Remaining BTK activity (%)
Sequence (Q06187 whole entry): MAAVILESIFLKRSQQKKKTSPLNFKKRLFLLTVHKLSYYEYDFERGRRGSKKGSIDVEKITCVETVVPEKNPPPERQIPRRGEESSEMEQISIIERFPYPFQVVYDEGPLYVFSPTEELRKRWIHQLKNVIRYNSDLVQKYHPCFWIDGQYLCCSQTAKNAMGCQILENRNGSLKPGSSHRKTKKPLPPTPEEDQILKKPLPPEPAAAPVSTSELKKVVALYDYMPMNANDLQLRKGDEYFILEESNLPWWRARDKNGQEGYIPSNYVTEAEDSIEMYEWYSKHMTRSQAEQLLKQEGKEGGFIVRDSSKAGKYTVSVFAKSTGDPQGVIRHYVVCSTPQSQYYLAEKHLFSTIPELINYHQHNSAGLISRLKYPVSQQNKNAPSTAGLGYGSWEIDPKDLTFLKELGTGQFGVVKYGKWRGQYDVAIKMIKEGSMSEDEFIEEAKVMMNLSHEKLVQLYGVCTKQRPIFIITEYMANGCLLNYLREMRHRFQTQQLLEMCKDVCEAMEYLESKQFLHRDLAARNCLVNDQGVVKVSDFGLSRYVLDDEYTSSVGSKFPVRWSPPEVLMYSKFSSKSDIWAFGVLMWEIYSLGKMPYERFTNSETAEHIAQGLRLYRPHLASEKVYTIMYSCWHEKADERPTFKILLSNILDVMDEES
Quick note: give the figure in %, leave out the unit.

Examples with answers:
**Query** Name the recorded remaining activity at 0.1 µM for CSc1ncc(Cl)c(C(=O)N2CCC[C@@H](n3nc(-c4ccc(Oc5ccccc5)cc4)c4c(N)ncnc43)C2)n1 .
**Result** 100

**Query** Given the entry Nc1ncnc2c1c(-c1ccc(Oc3ccccc3)cc1)nn2C1CCCN(C(=O)c2cnc(S(=O)(=O)c3ccccc3)nc2)C1 (stereo in doubt) , report its measured remaining activity at 0.1 µM.
**Result** 35

**Query** Which value of remaining activity at 0.1 µM has been reported for Nc1ncnc2c1c(-c1ccc(Oc3ccccc3)cc1)nn2[C@@H]1CCCN(C(=O)c2ccccc2)C1 in the records?
**Result** 100

**Query** Fill in: remaining activity at 0.1 µM of CS(=O)(=O)c1nccc(C(=O)N2CCCC(n3nc(-c4ccc(Oc5ccccc5)cc4)c4c(N)ncnc43)C2)n1 (stereo in doubt) is ___
**Result** 17

**Query** Consider the compound CCCCSc1ncc(C(=O)N2CCC[C@@H](n3nc(-c4ccc(Oc5ccccc5)cc4)c4c(N)ncnc43)C2)cn1 and give its measured remaining activity at 0.1 µM.
**Result** 84

---
**Query** Data request, read-out remaining activity at 0.1 µM, for CNC(=O)c1cnc(S(C)(=O)=O)nc1N1CCCC(n2nc(-c3ccc(Oc4ccccc4)cc3)c3c(N)ncnc32)C1 (centres unmarked)
**Result** 2

**Query** Which remaining activity at 0.1 µM is listed for CCCCS(=O)(=O)c1nccc(C(=O)N2CCC[C@H](n3nc(-c4ccc(Oc5ccccc5)cc4)c4c(N)ncnc43)C2)n1 ?
**Result** 58

**Query** Look at this compound and give its reported remaining activity at 0.1 µM. Nc1ncnc2c1c(-c1ccc(Oc3ccccc3)cc1)nn2[C@@H]1CCCN(C(=O)c2ccncn2)C1 [Compound 12a]
**Result** 53

**Query** Look up remaining activity at 0.1 µM: CS(=O)(=O)c1nccc(N2CCC[C@@H](n3nc(-c4ccc(Oc5ccccc5)cc4)c4c(N)ncnc43)C2)n1
**Result** 48

**Query** Recorded remaining activity at 0.1 µM of CCCCS(=O)(=O)c1ncc(C(=O)N2CCCC(n3nc(-c4ccc(Oc5ccccc5)cc4)c4c(N)ncnc43)C2)cn1 (stereo in doubt) , please.
**Result** 38

**Query** Param item = Nc1ncnc2c1c(-c1ccc(Oc3ccccc3)cc1)nn2[C@@H]1CCCN(C(=O)c2cnc(Sc3ccccc3)nc2)C1 ; retrieve measured remaining activity at 0.1 µM.
**Result** 100

**Query** Consider the compound shown here: CSc1nccc(C(=O)N2CCC[C@@H](n3nc(-c4ccc(Oc5ccccc5)cc4)c4c(N)ncnc43)C2)n1 What is its recorded remaining activity at 0.1 µM?
**Result** 84

----------
target: ABL1(E255K)-phosphorylated (Homo sapiens, UniProt P00519, E255K); construct: purchased Eurofins DiscoverX KINOMEscan (scanTK); test: KINOMEscan ScanTK; format: binding; settings: @1000nM, read-out: % difference (compound - Ib %Control)
Sequence (P00519 whole entry E255K): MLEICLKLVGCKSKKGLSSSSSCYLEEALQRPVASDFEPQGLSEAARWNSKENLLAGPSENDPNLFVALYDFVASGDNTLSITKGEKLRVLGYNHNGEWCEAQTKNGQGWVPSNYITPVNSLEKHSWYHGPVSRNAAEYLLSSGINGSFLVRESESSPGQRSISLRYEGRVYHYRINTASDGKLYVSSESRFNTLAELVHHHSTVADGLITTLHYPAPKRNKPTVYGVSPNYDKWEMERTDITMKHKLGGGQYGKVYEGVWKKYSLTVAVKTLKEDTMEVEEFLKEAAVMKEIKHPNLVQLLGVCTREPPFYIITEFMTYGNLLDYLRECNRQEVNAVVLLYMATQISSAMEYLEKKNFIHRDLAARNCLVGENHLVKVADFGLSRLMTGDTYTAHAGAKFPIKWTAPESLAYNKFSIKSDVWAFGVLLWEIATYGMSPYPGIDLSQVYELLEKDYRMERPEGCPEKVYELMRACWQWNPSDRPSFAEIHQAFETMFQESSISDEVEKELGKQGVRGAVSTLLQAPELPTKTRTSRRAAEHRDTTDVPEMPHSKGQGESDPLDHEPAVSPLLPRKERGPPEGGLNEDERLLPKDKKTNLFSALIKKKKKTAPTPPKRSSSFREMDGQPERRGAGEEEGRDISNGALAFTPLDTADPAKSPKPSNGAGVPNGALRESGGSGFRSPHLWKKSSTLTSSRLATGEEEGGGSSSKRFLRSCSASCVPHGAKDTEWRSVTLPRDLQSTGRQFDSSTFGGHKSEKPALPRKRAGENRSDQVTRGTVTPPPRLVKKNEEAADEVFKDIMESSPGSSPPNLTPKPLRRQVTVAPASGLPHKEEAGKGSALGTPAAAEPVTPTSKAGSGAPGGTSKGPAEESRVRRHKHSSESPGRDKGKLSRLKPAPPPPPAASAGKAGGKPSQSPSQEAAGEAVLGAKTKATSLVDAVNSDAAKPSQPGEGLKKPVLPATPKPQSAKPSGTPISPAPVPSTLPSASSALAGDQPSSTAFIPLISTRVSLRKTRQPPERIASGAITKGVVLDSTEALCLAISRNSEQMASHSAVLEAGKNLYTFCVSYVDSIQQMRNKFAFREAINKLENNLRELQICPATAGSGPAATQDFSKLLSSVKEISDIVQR
Quantity name: difference in %Control from reference Ib at 1 µM (%)
Please respond with the number in % and leave the unit unwritten.

Some compounds with recorded difference in %Control from reference Ib at 1 µM:
**Query** API: value(readout=difference in %Control from reference Ib at 1 µM, system=ABL1(E255K)-phosphorylated (Homo sapiens, UniProt P00519, E255K)) for record COC(=O)c1cnc(S(C)(=O)=O)nc1N1CCCC(n2nc(-c3ccc(Oc4ccccc4)cc3)c3c(N)ncnc32)C1 (stereo not shown) [Compound 8b]
**Result** 17

**Query** Lab note: need difference in %Control from reference Ib at 1 µM for CCOC(=O)c1cnc(S(C)(=O)=O)nc1N1CCC[C@@H](n2nc(-c3ccc(Oc4ccccc4)cc3)c3c(N)ncnc32)C1 [Compound 8c] on ABL1(E255K)-phosphorylated (Homo sapiens, UniProt P00519, E255K), anyone have it?
**Result** 17

**Query** Give ABL1(E255K)-phosphorylated (Homo sapiens, UniProt P00519, E255K) difference in %Control from reference Ib at 1 µM for Cc1cnc(S(C)(=O)=O)nc1N1CCCC(n2nc(-c3ccc(Oc4ccccc4)cc3)c3c(N)ncnc32)C1 (stereo not shown) [Compound 8a]
**Result** 12

Proceeding to the next compound to report its difference in %Control from reference Ib at 1 µM.
**Query** GET /values?readout=difference in %Control from reference Ib at 1 µM&system=ABL1(E255K)-phosphorylated (Homo sapiens, UniProt P00519, E255K)&item= CNC(=O)c1cnc(S(C)(=O)=O)nc1N1CCCC(n2nc(-c3ccc(Oc4ccccc4)cc3)c3c(N)ncnc32)C1 (stereo not shown) [Compound 8d]
**Result** 26

----------
biological target: ABL1(F317L)-phosphorylated (Homo sapiens, UniProt P00519, F317L); construct: purchased Eurofins DiscoverX KINOMEscan (scanTK); test: KINOMEscan ScanTK; type: binding; details: @1000nM
Sequence (P00519 whole entry F317L): as the sequence (P00519 whole entry E255K) above, with K255E, F317L counted along it
Listed here: items and their measured difference in %Control from compound Ib at 1 µM.

Take a look at these entries with their results.
**Query** Given the entry Cc1cnc(S(C)(=O)=O)nc1N1CCCC(n2nc(-c3ccc(Oc4ccccc4)cc3)c3c(N)ncnc32)C1 (stereo not shown) , report its measured difference in %Control from compound Ib at 1 µM.
**Result** 15%

**Query** difference in %Control from compound Ib at 1 µM for CCOC(=O)c1cnc(S(C)(=O)=O)nc1N1CCC[C@@H](n2nc(-c3ccc(Oc4ccccc4)cc3)c3c(N)ncnc32)C1 ?
**Result** 49%

**Query** Give the measured difference in %Control from compound Ib at 1 µM of CNC(=O)c1cnc(S(C)(=O)=O)nc1N1CCCC(n2nc(-c3ccc(Oc4ccccc4)cc3)c3c(N)ncnc32)C1 (stereo not shown) .
**Result** 39%

Now take the following compound into account.
**Query** Given the entry COC(=O)c1cnc(S(C)(=O)=O)nc1N1CCCC(n2nc(-c3ccc(Oc4ccccc4)cc3)c3c(N)ncnc32)C1 (stereo not shown) , report its measured difference in %Control from compound Ib at 1 µM.
**Result** 16%

----------
molecular target: HCK (Homo sapiens); construct: purchased Eurofins DiscoverX KINOMEscan (scanTK); assay: KINOMEscan ScanTK; assay type: binding; conditions: @1000nM
Sequence (P08631 whole entry): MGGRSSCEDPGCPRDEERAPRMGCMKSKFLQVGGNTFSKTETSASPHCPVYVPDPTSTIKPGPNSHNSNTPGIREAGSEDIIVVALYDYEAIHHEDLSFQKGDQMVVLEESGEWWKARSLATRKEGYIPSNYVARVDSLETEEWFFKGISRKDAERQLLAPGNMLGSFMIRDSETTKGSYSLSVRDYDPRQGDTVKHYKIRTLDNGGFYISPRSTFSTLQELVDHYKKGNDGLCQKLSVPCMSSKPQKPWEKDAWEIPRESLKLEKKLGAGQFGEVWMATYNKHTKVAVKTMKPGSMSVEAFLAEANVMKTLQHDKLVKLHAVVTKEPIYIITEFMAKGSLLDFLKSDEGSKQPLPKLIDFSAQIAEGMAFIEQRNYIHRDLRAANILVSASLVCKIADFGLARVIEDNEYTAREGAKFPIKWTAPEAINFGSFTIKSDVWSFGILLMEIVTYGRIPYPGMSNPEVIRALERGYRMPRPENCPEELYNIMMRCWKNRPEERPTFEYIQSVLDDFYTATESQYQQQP
Quantity name: difference in %Control from compound Ib at 1 µM (%)
Could you give me the number in %? Just the number is fine.

**Query** Given the entry CCOC(=O)c1cnc(S(C)(=O)=O)nc1N1CCC[C@@H](n2nc(-c3ccc(Oc4ccccc4)cc3)c3c(N)ncnc32)C1 , what difference in %Control from compound Ib at 1 µM was observed with HCK (Homo sapiens)?
**Result** 22.8

Continuing:
**Query** // lookup difference in %Control from compound Ib at 1 µM | system=HCK (Homo sapiens) | key= COC(=O)c1cnc(S(C)(=O)=O)nc1N1CCCC(n2nc(-c3ccc(Oc4ccccc4)cc3)c3c(N)ncnc32)C1 (stereo not shown)
**Result** 10.8

**Query** Item: Cc1cnc(S(C)(=O)=O)nc1N1CCCC(n2nc(-c3ccc(Oc4ccccc4)cc3)c3c(N)ncnc32)C1 (stereo not shown) Test system: HCK (Homo sapiens) Read-out: difference in %Control from compound Ib at 1 µM Value: ?
**Result** 1.3

**Query** What difference in %Control from compound Ib at 1 µM appears in the records for this molecule with HCK (Homo sapiens)? CNC(=O)c1cnc(S(C)(=O)=O)nc1N1CCCC(n2nc(-c3ccc(Oc4ccccc4)cc3)c3c(N)ncnc32)C1 (stereo not shown)
**Result** 6.8

----------
biological target: EGFR(L747-S752del, P753S) (Homo sapiens, UniProt P00533, DEL747-752/P753S); construct: purchased Eurofins DiscoverX KINOMEscan (scanTK); test: KINOMEscan ScanTK; format: binding; conditions: read-out: %Control @1000nM
Sequence (P00533 with tags, fused parts or gaps DEL747-752/P753S limits assumed): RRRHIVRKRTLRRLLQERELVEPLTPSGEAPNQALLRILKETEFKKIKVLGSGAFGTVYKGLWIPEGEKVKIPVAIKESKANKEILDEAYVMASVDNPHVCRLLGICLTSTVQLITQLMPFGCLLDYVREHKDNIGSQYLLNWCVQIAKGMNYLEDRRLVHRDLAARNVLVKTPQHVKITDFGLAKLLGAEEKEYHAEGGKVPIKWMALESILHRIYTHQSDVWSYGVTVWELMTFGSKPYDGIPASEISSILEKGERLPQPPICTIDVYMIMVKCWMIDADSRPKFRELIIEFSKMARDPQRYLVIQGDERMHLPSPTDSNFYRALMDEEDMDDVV
Quantity name: remaining binding at 1 µM (%)
Unit % implied. Number only.

**Query** Please provide the recorded remaining binding at 1 µM for Cc1cnc(S(C)(=O)=O)nc1N1CCCC(n2nc(-c3ccc(Oc4ccccc4)cc3)c3c(N)ncnc32)C1 (stereo not shown) , tested on EGFR(L747-S752del, P753S) (Homo sapiens, UniProt P00533, DEL747-752/P753S).
**Result** 94

Further cases:
**Query** Can you look up remaining binding at 1 µM on EGFR(L747-S752del, P753S) (Homo sapiens, UniProt P00533, DEL747-752/P753S) for CNC(=O)c1cnc(S(C)(=O)=O)nc1N1CCCC(n2nc(-c3ccc(Oc4ccccc4)cc3)c3c(N)ncnc32)C1 (stereo not shown) ?
**Result** 42

**Query** // fetch EGFR(L747-S752del, P753S) (Homo sapiens, UniProt P00533, DEL747-752/P753S) remaining binding at 1 µM for CCOC(=O)c1cnc(S(C)(=O)=O)nc1N1CCC[C@@H](n2nc(-c3ccc(Oc4ccccc4)cc3)c3c(N)ncnc32)C1
**Result** 100

**Query** # value lookup — system EGFR(L747-S752del, P753S) (Homo sapiens, UniProt P00533, DEL747-752/P753S), readout remaining binding at 1 µM, item COC(=O)c1cnc(S(C)(=O)=O)nc1N1CCCC(n2nc(-c3ccc(Oc4ccccc4)cc3)c3c(N)ncnc32)C1 (stereo not shown)
**Result** 95
